Data credit: ChEMBL document CHEMBL1140649

test system: K562; experiment: Cytotoxicity against K562 cells assessed as cell survival by MTT assay; assay type: functional, cell-based; settings: Homo sapiens
Kindly state pEC50 for each of the entries shown.
Just so you know, pEC50 here is -log10 of the concentration in molar units; reply with that number alone.

Name the reported pEC50 value associated with the molecule "CCCCCCCCCCCCCC[C@@H](O)[C@@H](O)[C@H](CO)n1cc(CCCC)nn1"
4.84

Next molecule: "CCCCCCCCCCCCC/C=C/[C@@H](O)[C@H](CO)n1cc(CCCC)nn1"
4.91

Next molecule: "CCCCCCCCCCCCC/C=C/[C@@H](O)[C@H](CO)NC(C)=O"
4.45

Next molecule: "CCCCCCCCCCCCCC[C@@H](O)[C@@H](O)[C@H](CO)n1cc(CCC)nn1"
4.83

Next molecule: "CCCCCCCCCCCCC/C=C/[C@@H](O)[C@H](CO)n1cc(CCC)nn1"
4.89

Next molecule: "CCCCCCCCCCCCCC[C@@H](O)[C@@H](O)[C@H](CO)n1cc(CCCCCC)nn1"
4.90

Next molecule: "CCCCCCCCCCCCC/C=C/[C@@H](O)[C@H](CO)n1cc(CCCCCC)nn1"
5.09
